test system: Escherichia coli; assay: Antibacterial activity in vitro, agar plate dilution; assay type: cell-based; parameters: key: + means the degree of inhibition of the growth of E. Coli; the larger the number of +, the larger the inhibition; ++: + means the degree of inhibition of the growth of E. Coli; the larger the number of +, the larger the inhibition; +++: + means the degree of inhibition of the growth of E. Coli; the larger the number of +, the larger the inhibition; - means that no inhibition of the growth of E. coli was observed; conditions: Diluted concentration 1/4; 18 hours at 37°C, Heart infusion agar
recorded-endpoint: degree of inhibition of the growth of E. coli

Check out these entries, answers already filled in.
O=NN(CCCl)C(=O)NCCCl [BCNU, 1,3-Bis(2-chloroethyl)-1-nitrosourea, reference compound]: -
O=NN(CCCl)C(=O)NCC(O)CO (centres unmarked): +
CC(CO)(CO)NC(=O)N(CCCl)N=O: ++
CCC(CO)(CO)NC(=O)N(CCCl)N=O: +

Suppose we examine the molecule CC(NC(=O)N(CCCl)N=O)C(O)CO (centres unmarked) ; what degree of inhibition of the growth of E. coli value has been reported? +

// data source = patent EP0071374A1
